settings: in 2-pentanone, 293.2 K
// values below are reported solubility (mole fraction)
READOUT KIND: solubility (mole fraction)

INSERT INTO measurements (compound, measured_value) VALUES
  ('O=C(Nc1c(Cl)cncc1Cl)c1ccc(OC(F)F)c(OCC2CC2)c1', 0.00016),
  ('Cc1nnc(C(C)C)n1C1C[C@H]2CC[C@@H](C1)N2CC[C@H](NC(=O)C1CCC(F)(F)CC1)c1ccccc1 (some centres not stated)', 0.000418);

###

conditions: in DMSO, 283.2 K
Some compounds, each annotated with its measured solubility (mole fraction).
READOUT KIND: solubility (mole fraction)

INSERT INTO assay_data (compound, measured_value) VALUES
  ('O=C(Nc1c(Cl)cncc1Cl)c1ccc(OC(F)F)c(OCC2CC2)c1', '4.2e-05'),
  ('Cc1nnc(C(C)C)n1C1C[C@H]2CC[C@@H](C1)N2CC[C@H](NC(=O)C1CCC(F)(F)CC1)c1ccccc1 (some centres not stated)', '2.4e-05');
